# System: Escherichia coli TOP10
# testName: shrunken log2 fold change of peptide-encoding DNA abundance (4.5 h post-induction vs induction); higher = less antimicrobial activity (less host growth inhibition)
# recordedConditions: time post-induction: 4.5 h; library: site-saturation at positions 5, 18, 19, 20
measure: shrunken log2 fold change
Note: the reply should be a number with no unit written.

Below are worked cases with known answers.
[[record]]
residuesequence = "RRIRIRPPRLPRPRPRPAQEPRP"
measure = "shrunken log2 fold change"
numericresult = -0.0756

[[record]]
residuesequence = "RRIRDRPPRLPRPRPRPKVFPRP"
measure = "shrunken log2 fold change"
numericresult = 0.0612

[[record]]
residuesequence = "RRIRQRPPRLPRPRPRPKEPPRP"
measure = "shrunken log2 fold change"
numericresult = 0.0201


**Q:** What value of measured shrunken log2 fold change is listed for RRIRLRPPRLPRPRPRPGQWPRP ?
**A:** 0.17

----------
# System: Escherichia coli TOP10
# testName: shrunken log2 fold change of peptide-encoding DNA abundance (4.5 h post-induction vs induction); higher = less antimicrobial activity (less host growth inhibition)
# recordedConditions: time post-induction: 4.5 h; library: site-saturation at positions 5, 18, 19, 20
measure: shrunken log2 fold change

Below are worked cases with known answers.
[[record]]
residuesequence = "RRIRMRPPRLPRPRPRPHWQPRP"
result = 0.161

[[record]]
residuesequence = "RRIRMRPPRLPRPRPRPDQCPRP"
result = 0.0192

[[record]]
residuesequence = "RRIRNRPPRLPRPRPRPHTHPRP"
result = -0.438


Read the next record carefully.
**Q:** What value of measured shrunken log2 fold change is listed for RRIRMRPPRLPRPRPRPWFSPRP ?
**A:** -0.0415

----------
# Test system: Escherichia coli TOP10
# testName: shrunken log2 fold change of peptide-encoding DNA abundance (4.5 h post-induction vs induction); higher = less antimicrobial activity (less host growth inhibition)
# recordedConditions: time post-induction: 4.5 h; library: site-saturation at positions 5, 18, 19, 20
measure: shrunken log2 fold change
Note: the reply should be a number with no unit written.

[[record]]
residuesequence = "RRIRDRPPRLPRPRPRPDKVPRP"
measure = "shrunken log2 fold change"
numericresult = -0.159

[[record]]
residuesequence = "RRIRYRPPRLPRPRPRPAILPRP"
measure = "shrunken log2 fold change"
numericresult = -0.402

[[record]]
residuesequence = "RRIRTRPPRLPRPRPRPVPKPRP"
measure = "shrunken log2 fold change"
numericresult = 0.0251


**Q:** Request body: readout shrunken log2 fold change, system Escherichia coli TOP10, query RRIRHRPPRLPRPRPRPNRKPRP . Return the value.
**A:** 0.0857

**Q:** Then RRIRCRPPRLPRPRPRPYAKPRP ?
**A:** -0.671

**Q:** Then RRIRDRPPRLPRPRPRPDNTPRP ?
**A:** -0.103

**Q:** Then RRIRVRPPRLPRPRPRPRCPPRP ?
**A:** -0.00901

**Q:** Then RRIRPRPPRLPRPRPRPNREPRP ?
**A:** 0.026

**Q:** Then RRIRFRPPRLPRPRPRPDDNPRP ?
**A:** -0.137

**Q:** Then RRIRCRPPRLPRPRPRPHQDPRP ?
**A:** -0.365

**Q:** Then RRIRTRPPRLPRPRPRPAYDPRP ?
**A:** -0.251

**Q:** Then RRIRLRPPRLPRPRPRPYDYPRP ?
**A:** -0.0244

**Q:** Then RRIRVRPPRLPRPRPRPIARPRP ?
**A:** 0.0436

**Q:** Then RRIRPRPPRLPRPRPRPFGWPRP ?
**A:** 0.328

**Q:** Then RRIRDRPPRLPRPRPRPGVRPRP ?
**A:** 0.502

----------
# Test system: Escherichia coli TOP10
# testName: shrunken log2 fold change of peptide-encoding DNA abundance (4.5 h post-induction vs induction); higher = less antimicrobial activity (less host growth inhibition)
# recordedConditions: time post-induction: 4.5 h; library: site-saturation at positions 5, 18, 19, 20
measure: shrunken log2 fold change
Note: the reply should be a number with no unit written.

[[record]]
residuesequence = "RRIRVRPPRLPRPRPRPPDRPRP"
numericresult = 0.379

[[record]]
residuesequence = "RRIRWRPPRLPRPRPRPVIDPRP"
numericresult = 0.373

[[record]]
residuesequence = "RRIRFRPPRLPRPRPRPKYLPRP"
numericresult = -0.451


**Q:** What value of measured shrunken log2 fold change is listed for RRIRMRPPRLPRPRPRPQWSPRP ?
**A:** 0.0117

**Q:** Then RRIRIRPPRLPRPRPRPVPEPRP ?
**A:** -0.138

**Q:** Then RRIRFRPPRLPRPRPRPPNEPRP ?
**A:** 0.0211

**Q:** Then RRIRGRPPRLPRPRPRPQDDPRP ?
**A:** 0.114

**Q:** Then RRIRIRPPRLPRPRPRPVHAPRP ?
**A:** 0.0769

**Q:** Then RRIRGRPPRLPRPRPRPIWTPRP ?
**A:** 0.352

**Q:** Then RRIRRRPPRLPRPRPRPTRTPRP ?
**A:** 0.681

**Q:** Then RRIRLRPPRLPRPRPRPVLHPRP ?
**A:** -0.024

**Q:** Then RRIRIRPPRLPRPRPRPEPCPRP ?
**A:** -0.057

**Q:** Then RRIRPRPPRLPRPRPRPNELPRP ?
**A:** -0.313

**Q:** Then RRIRKRPPRLPRPRPRPGMHPRP ?
**A:** 0.213

**Q:** Then RRIRQRPPRLPRPRPRPYTTPRP ?
**A:** -0.0148

----------
# Test system: Escherichia coli TOP10
# testName: shrunken log2 fold change of peptide-encoding DNA abundance (4.5 h post-induction vs induction); higher = less antimicrobial activity (less host growth inhibition)
# recordedConditions: time post-induction: 4.5 h; library: site-saturation at positions 5, 18, 19, 20
Documented shrunken log2 fold change across a set of sequences
Note: the reply should be a number with no unit written.

Below are worked cases with known answers.
[[record]]
residuesequence = "RRIRARPPRLPRPRPRPQGKPRP"
numericresult = 0.128

[[record]]
residuesequence = "RRIRQRPPRLPRPRPRPCGWPRP"
numericresult = 0.502

[[record]]
residuesequence = "RRIRRRPPRLPRPRPRPRMIPRP"
numericresult = -0.136

[[record]]
residuesequence = "RRIRMRPPRLPRPRPRPRMLPRP"
numericresult = 0.465

[[record]]
residuesequence = "RRIRSRPPRLPRPRPRPLISPRP"
numericresult = -0.173


**Q:** What value of measured shrunken log2 fold change is listed for RRIRQRPPRLPRPRPRPPSDPRP ?
**A:** 1.18

**Q:** Then RRIRRRPPRLPRPRPRPMDIPRP ?
**A:** -0.168

----------
# Test system: Escherichia coli TOP10
# testName: shrunken log2 fold change of peptide-encoding DNA abundance (4.5 h post-induction vs induction); higher = less antimicrobial activity (less host growth inhibition)
# recordedConditions: time post-induction: 4.5 h; library: site-saturation at positions 5, 18, 19, 20
Quick rule for you: shrunken log2 fold change at 0.1 or higher means Met, lower means Not met.

Use these answered entries as a reference point.
[[record]]
residuesequence = "RRIRQRPPRLPRPRPRPYEMPRP"
targetentity = "Escherichia coli TOP10"
discretelabel = "Not met"

[[record]]
residuesequence = "RRIRERPPRLPRPRPRPNHNPRP"
targetentity = "Escherichia coli TOP10"
discretelabel = "Not met"


**Q:** API: above_or_equal(metric=shrunken log2 fold change, cutoff=0.1) for item RRIRERPPRLPRPRPRPADTPRP
**A:** Not met

**Q:** Then RRIRVRPPRLPRPRPRPQFQPRP ?
**A:** Not met

----------
# Tested on: Escherichia coli TOP10
# testName: shrunken log2 fold change of peptide-encoding DNA abundance (4.5 h post-induction vs induction); higher = less antimicrobial activity (less host growth inhibition)
# recordedConditions: time post-induction: 4.5 h; library: site-saturation at positions 5, 18, 19, 20
Documented shrunken log2 fold change across a set of sequences
Note: the reply should be a number with no unit written.

Below are worked cases with known answers.
[[record]]
residuesequence = "RRIRDRPPRLPRPRPRPRNVPRP"
targetentity = "Escherichia coli TOP10"
measure = "shrunken log2 fold change"
numericresult = 0.0903

[[record]]
residuesequence = "RRIRHRPPRLPRPRPRPYLKPRP"
targetentity = "Escherichia coli TOP10"
measure = "shrunken log2 fold change"
numericresult = -0.298

[[record]]
residuesequence = "RRIRMRPPRLPRPRPRPMWVPRP"
targetentity = "Escherichia coli TOP10"
measure = "shrunken log2 fold change"
numericresult = 0.0332


**Q:** Request body: readout shrunken log2 fold change, system Escherichia coli TOP10, query RRIRNRPPRLPRPRPRPYGLPRP . Return the value.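 Note: peptides expressed intracellularly from a pBAD plasmid library in pooled LB shake-flask culture, induced with 0.3% L-arabinose, DNA abundance read by NGS, three biological replicates, DESeq2 with apeglm shrinkage.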
**A:** -0.106

**Q:** Then RRIRRRPPRLPRPRPRPELIPRP ?
**A:** 0.0314

**Q:** Then RRIRLRPPRLPRPRPRPTDQPRP ?
**A:** 0.0347

**Q:** Then RRIRARPPRLPRPRPRPVHGPRP ?
**A:** 0.785

**Q:** Then RRIRFRPPRLPRPRPRPMERPRP ?
**A:** -0.208

**Q:** Then RRIRGRPPRLPRPRPRPMGTPRP ?
**A:** 0.48

**Q:** Then RRIRSRPPRLPRPRPRPQHVPRP ?
**A:** -0.17

**Q:** Then RRIRNRPPRLPRPRPRPTISPRP ?
**A:** -0.969

**Q:** Then RRIRLRPPRLPRPRPRPMQDPRP ?
**A:** 0.0525

**Q:** Then RRIRERPPRLPRPRPRPHWWPRP ?
**A:** 0.193

**Q:** Then RRIRHRPPRLPRPRPRPHFIPRP ?
**A:** -0.499

**Q:** Then RRIRMRPPRLPRPRPRPNLQPRP ?
**A:** -0.0416
